MIC Spn52 values for the molecules below.
tested on: S. pneumoniae ATCC 51916; assay: MIC, S. pneumoniae; type: cell-based; conditions: S. pneumoniae

Exam item: Please look up its MIC Spn52: `CCc1[nH]c2nc(Nc3cnc4c(c3)nnn4C(C)C)nc(N3CC(NC(=O)OC(C)(C)C)C3)c2c1Br.O=C(O)C(F)(F)F`
Marked response: > 64 µg/mL

Exam item: Next: `CCOc1nc(Nc2cnc3nccnc3c2)nc2[nH]c(CC)c(Br)c12.O=C(O)C(F)(F)F`
Marked response: > 8 µg/mL

Exam item: Repeat with `CCc1[nH]c2nc(Sc3nc(C(=O)O)co3)nc(N3CC(O)C3)c2c1Cl.O=C(O)C(F)(F)F.O=C(O)C(F)(F)F`
Marked response: > 64 µg/mL

Continuing:
Exam item: For the molecule shown here, `CCOc1nc(Nc2cc(OC)c(OC)c(OC)c2Br)nc2[nH]c(CC)c(Br)c12.O=C(O)C(F)(F)F` , give the reported MIC Spn52.
Marked response: > 64 µg/mL

Exam item: // same read-out, input: `CCOC(=O)c1coc(Sc2nc(OCC)c3c(Br)c(CC)[nH]c3n2)n1`
Marked response: > 64 µg/mL

Exam item: Record: `CCc1[nH]c2nc(Cc3cccnc3)nc(N3CC(N)C3)c2c1Cl`
Marked response: > 64 µg/mL

Exam item: Then `CCc1[nH]c2nc(Oc3cncc(C#N)c3)nc(Oc3cncc(C#N)c3)c2c1Br.O=C(O)C(F)(F)F` ?
Marked response: ≤ 0.5 µg/mL

---

test system: S. aureus ATCC 13709; experiment: MIC, antibacterial potency, S. aureus; format: cell-based; conditions: S. aureus (SA); in µg/mL
MEASUREMENT_LABEL: MIC, SA

Past entries and their recorded results:
Exam item: Given the entry CCc1[nH]c2nc(Sc3ccc4cncnc4c3)nc(N3CC4C(N)C4C3)c2c1Cl (centres unmarked) , report its measured MIC, SA.
Marked response: <=0.5

Exam item: Now give it for `CCc1[nH]c2nc(Oc3cnc4c(c3)ncn4C)nc(Oc3cncc(C#N)c3)c2c1Br` too.
Marked response: <=0.5

Exam item: Same question, `CCc1[nH]c2nc(Oc3ccc[n+]([O-])c3)nc(Oc3cccc(C#N)c3)c2c1Br` this time
Marked response: <=0.5

Exam item: Another compound to look at: CCc1[nH]c2nc(Sc3ccc4c(c3)C(=O)NC4)nc(N3CC4C(N)C4C3)c2c1Cl (centres unmarked)
Marked response: <=0.5

Exam item: Next entry: `CCc1[nH]c2nc(Oc3cc(C#N)c(OC)c(OC)c3)nc(Oc3ccc4nccnc4c3)c2c1Br`
Marked response: <=0.5

Exam item: For CCc1[nH]c2nc(Sc3ccc4c(c3)C(=O)NC4)nc(N3CC4C(C3)C4(N)C(N)=O)c2c1Cl (centres unmarked) then?
Marked response: <=0.5

Exam item: CCc1[nH]c2nc(Sc3cnc4ccc[n+]([O-])c4c3)nc(N3CC4C(N)C4C3)c2c1Cl (centres unmarked) , same question.
Marked response: <=0.5

Exam item: Record: `CCc1[nH]c2nc(Sc3cnc4ccc[n+]([O-])c4c3)nc(N3CC[C@@H](N)C3)c2c1Cl`
Marked response: <=0.5

Please find the next compound below.
Exam item: Fill in the blank: the reported MIC, SA of CCc1[nH]c2nc(Oc3cnc(N)nc3)nc(N3CC4C(N)C4C3)c2c1Cl (centres unmarked) is ____.
Marked response: 2
